- test protocol: Plasma pharmacokinetics of ATX-101 on first infusion day, non-compartmental (Phoenix WinNonlin)
- test parameters: human, plasma, iv, 20 mg/m2
Ends that are not written are not given here.
quantity kind: AUC0-t (ng·h/mL)
Express it in ng·h/mL; write the number only.

Any idea what its AUC0-t is? The substance is Ac-MDRWLVKWKKKRKIRRRRRRRRRRR (N-terminus assumed) [ATX-101]
666
